Values compiled from patent US20060069123A1.

Here's a batch of compounds along with measured pIC50 for CCR2 (Homo sapiens).
Remember the convention: pIC50 equals -log10 of concentration in molar.

Solved cases (3 shown):
• CS(=O)(=O)Nc1ccc2[nH]cc(C3CCN(C(COC(=O)/C=C/c4cc(F)cc(F)c4)C4CCN(C(=O)/C=C/c5cc(F)cc(F)c5)CC4)CC3)c2c1 (stereo not drawn) = 7.70
• Cc1ccc(NC(=O)N2CCC(C(C(=O)O)N3CCC(c4c[nH]c5ccccc45)CC3)CC2)cc1 (stereo not drawn) = 6.09
• O=C(/C=C/c1ccc(Cl)cc1)N1CCC(C(CO)N2CCC(c3ccc(Cl)cc3)CC2)CC1 (stereo not drawn) = 6.70

Check CCR2 (Homo sapiens) data and give pIC50 for COc1ccc2[nH]cc(C3CCN(C(CO)C4CCN(C(=O)/C=C/c5ccc(Cl)c(Cl)c5)CC4)CC3)c2c1 (stereo not drawn) .
8.15

With CCR2 (Homo sapiens) as the test system, provide measured pIC50 for this compound: OCC(C1CCN(C(=S)Nc2cccc(C(F)(F)F)c2)CC1)N1CCC(c2c[nH]c3ccccc23)CC1 (stereo not drawn)
Sequence (P41597 1-360 isoform P41597-2): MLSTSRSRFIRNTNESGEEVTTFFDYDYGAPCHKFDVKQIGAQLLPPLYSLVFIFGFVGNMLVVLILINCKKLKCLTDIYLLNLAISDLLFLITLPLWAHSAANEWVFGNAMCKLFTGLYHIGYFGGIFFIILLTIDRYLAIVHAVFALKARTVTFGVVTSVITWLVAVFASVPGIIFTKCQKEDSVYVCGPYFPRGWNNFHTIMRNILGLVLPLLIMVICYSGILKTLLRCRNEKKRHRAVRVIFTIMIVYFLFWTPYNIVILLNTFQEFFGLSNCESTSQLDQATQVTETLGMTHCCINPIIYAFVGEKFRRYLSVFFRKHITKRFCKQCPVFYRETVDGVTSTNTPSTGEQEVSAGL
7.10

Please respond with reported pIC50 (system CCR2 (Homo sapiens)) for O=C(/C=C/c1cc(F)cc(F)c1)N1CCC(C(CO)N2CCC(c3c[nH]c4ccc(O)cc34)CC2)CC1 (stereo not drawn) .
8.70
